Tested on: MALME-3M melanoma
MEASUREMENT NOTES: NCI-60 one-dose screen, 48 h
APPLIED CONDITIONS: 10 µM unless noted
About 83,000 compounds went through this panel and 20% of them were active in at least one assay; those are over-represented in the sample as a whole. Calls of active or inactive are those of the source. How the source made its calls: active means growth percent below 10; inactive means the rest.
In this exercise, the only acceptable responses are 1.0 (active), 0.0 (inactive)

The following compounds have reported results that may help.
In [3]: df
Out[3]:
                                   compound  cat
0  CN(C)c1ccc(Nc2cc(-c3cccc(OC(F)(F)F)c3)nc3ccc(N4CCCC4)cc23)cc1  1.0
1  Cn1c(=O)c2[nH]c(N/N=C/c3ccccc3Br)nc2n(C)c1=O  0.0
2      CCn1c(=S)[nH]c2c(=O)n(C)c(=O)n(C)c21  0.0

Check the results log: what was the call for COc1cc2c(c(OC)c1OC)C(=O)CC(c1cccc(NC(=O)c3ccc(Br)cc3)c1)O2 (stereo unspecified) ?
0.0

Check the results log: what was the call for COc1ccc(C2c3sc4c(F)cccc4c3Oc3nc[nH]c(=O)c32)cc1 (stereo unspecified) ?
0.0

Check the results log: what was the call for CN1CCN(C(=O)OCc2ccc3c(Cl)cc(Cl)c(O)c3n2)CC1 ?
0.0

Check the results log: what was the call for COC(=O)CCC(=O)C(=O)OC ?
0.0

Check the results log: what was the call for N#Cc1cccc(-c2c(-c3ccc4ccccc4c3)oc3ccccc3c2=O)c1 ?
0.0

Check the results log: what was the call for COc1ccc(C(=S)N2CCN(c3ccccc3Cl)CC2)cc1OC ?
0.0

Check the results log: what was the call for Cn1c(O)c(C=NCCN=Cc2c(O)n(C)c(=O)n(C)c2=O)c(=O)n(C)c1=O ?
0.0

Check the results log: what was the call for CC(C)=NNc1ccccn1 ?
0.0

---

System: NCI-H322M lung
MEASUREMENT NOTES: NCI-60 one-dose screen, 48 h (100 = growth as untreated, 0 = no growth, -100 = all killed)
APPLIED CONDITIONS: 10 µM unless noted
Description: Growth inhibition of the NCI-H322M human Non-Small Cell Lung tumor cell line is measured as a screen for anti-cancer activity. Cells are grown in 96 well plates and exposed to the test compound for 48 hours. Compounds are tested at a single concentration, which is 10^-5 M for most compounds. The reported endpoint is percent growth (GI% or GIPRCNT), where numbers from 0 - 100% represent growth inhibition, and numbers from -100% - 0 represent cell death. […]
About 83,000 compounds went through this panel and 20% of them were active in at least one assay; those are over-represented in the sample as a whole.
Outcome: condition met for growth of at least 90%; condition not met for anything lower.

The following molecules have reported results that may help.
                                   molecule                cat
0  COc1cc(-c2cc(-c3ccc(N(C)C)cc3)nc(N3CCC(O)CC3)c2C#N)cc(OC)c1OC  condition not met
1  O=C1CC(N2C(=O)/C(=C/C(Cl)=C\c3ccc([N+](=O)[O-])cc3)SC2=S)C(=O)N1c1ccc(Cl)cc1 (centres undefined)  condition not met
2  O=C(CSc1nc2sc3c(c2c(=O)n1-c1ccccc1)CCCCC3)N/N=C/c1ccc(F)cc1  condition not met
3  C[C@]12C=CC(=O)C=C1CCC1C2[C@@H](O)C[C@@]2(C)C1CC[C@]2(O)C(=O)COC(=O)CCC(=O)O (some centres undefined)      condition met
4  Cn1c(=O)c2c(nc(NC3=NS(=O)(=O)c4ccccc43)n2CC(=O)N2CCc3ccccc32)n(C)c1=O      condition met
5  C1=CN2CC(c3ccccc3)=NNC2c2ccccc21 (centres undefined)  condition not met
6  Nc1ncnc2c1N=C(c1ccc(Cl)cc1)CC(c1ccc3c(c1)OCO3)N2 (centres undefined)      condition met

Consider the record given below.
Given the entry O=c1c2cc(-c3ccccc3)sc2nc2sc(-c3ccccc3)nn12 , answer whether its growth meets or surpasses 90%.
condition met
